Experimental system: SREBF2; also: reference of the scale not given here
Protocol notes: pooled miR-30 sensor sort-seq; sequence = guide strand
Test context: shRNA
Answer each item with its documented sensor-assay potency score (higher = more potent).
Numbers only.

Dear reader, for each entry below, please note its sensor-assay potency score (higher = more potent).
1. TTTGATGTAATCAATGGCCTTC
2. TCGAATGACAGGACACTGCGGC

1: 0.209; 2: -0.313

For each of the sequences below, note its sensor-assay potency score (higher = more potent).
1. TTTATGATTGACCTGCTGCAAG
2. TTAGCTTCGTCTTCAAAGCCTG
3. TAAAATGAGAGCGCACAGCTGC

1. -1.02
2. -0.243
3. -0.945

// each sequence listed below needs its sensor-assay potency score (higher = more potent)
1. TTCACAGCTCTCTTCTTCCTGG
2. ATTACTGACAAATTGCAGCATC

1. 0.117
2. -0.795

// provenance: the OligoGym collection
